tested on: SK-BR-3; test: normalised response (% of control), CellTiter-Glo; higher = more viable cells (100 = DMSO, 0 = benzethonium chloride kill control); conditions: incubation time: 72 h
readout: normalised response

// normalised response value for CC/C(=C(\c1ccc(O)cc1)c1ccc(OCCN(C)C)cc1)c1ccccc1 [4-hydroxytamoxifen] (1000 nM) : 99.2%

// normalised response value for c1cc(CN2CCCNCCNCCCNCC2)ccc1CN1CCCNCCNCCCNCC1 [Plerixafor] (1 nM) : 81.3%

// normalised response value for COc1ccc(-c2cc3c(C)nc(N)nc3n([C@H]3CC[C@H](OCCO)CC3)c2=O)cn1 (10 nM) : 67.2%

// normalised response value for c1cc(CN2CCCNCCNCCCNCC2)ccc1CN1CCCNCCNCCCNCC1 [Plerixafor] (1000 nM) : 80%

// normalised response value for CCC/C=C/C=C/C(=O)O[C@H]1/C(=C/C(=O)OC)C[C@H]2C[C@H]([C@@H](C)O)OC(=O)C[C@H](O)C[C@@H]3C[C@H](OC(C)=O)C(C)(C)[C@](O)(C[C@@H]4C/C(=C/C(=O)OC)C[C@H](/C=C/C(C)(C)[C@]1(O)O2)O4)O3 [Bryostatin 1] (0.01 nM) : 103%

// normalised response value for CC(=O)OC[C@H]1O[C@@H]([S-])[C@H](OC(C)=O)[C@@H](OC(C)=O)[C@@H]1OC(C)=O.CCP(CC)CC.[Au+] [Auranofin] (0.25 nM) : 101%

// normalised response value for O=C(NC[C@H](O)CO)c1ccncc1Nc1ccc(I)cc1F [Pimasertib] (1000 nM) : 86.1%

// normalised response value for COc1ccc(-c2cc3c(C)nc(N)nc3n([C@H]3CC[C@H](OCCO)CC3)c2=O)cn1 (1 nM) : 80.9%

// normalised response value for Cc1c(CN2CCN(C(=O)[C@H](C)O)CC2)sc2c(N3CCOCC3)nc(-c3cnc(N)nc3)nc12 [GDC-0980] (1000 nM) : 21.6%

---

tested on: CAL-51; assay: normalised viability (% of control), CellTiter-Blue; higher = more viable cells (about 100 = DMSO control); conditions: 10 nM; incubation time: 72 h
Measured normalised viability accompanies every entry in the list below.
Write the value in % as a bare number.

Past entries and their recorded results:
Nc1ccccc1NC(=O)c1ccc(CNc2nccc(-c3cccnc3)n2)cc1 : 98.2
COc1ccc(-c2cc3c(C)nc(N)nc3n([C@H]3CC[C@H](OCCO)CC3)c2=O)cn1 : 93.3

// normalised viability value for O=C(Nc1c[nH]nc1-c1nc2ccc(CN3CCOCC3)cc2[nH]1)NC1CC1 : 100

---

test system: CAL-51; assay: normalised viability (% of control), CellTiter-Blue; higher = more viable cells (about 100 = DMSO control); conditions: incubation time: 72 h
readout: normalised viability
Quick note: unit goes after the number.

Past entries and their recorded results:
CO[C@@H](C(=O)N1Cc2[nH]nc(NC(=O)c3ccc(N4CCN(C)CC4)cc3)c2C1)c1ccccc1 [Danusertib] (3000 nM) : 25.9%
c1cc(CN2CCCNCCNCCCNCC2)ccc1CN1CCCNCCNCCCNCC1 [Plerixafor] (750 nM) : 103%
CCC/C=C/C=C/C(=O)O[C@H]1/C(=C/C(=O)OC)C[C@H]2C[C@H]([C@@H](C)O)OC(=O)C[C@H](O)C[C@@H]3C[C@H](OC(C)=O)C(C)(C)[C@](O)(C[C@@H]4C/C(=C/C(=O)OC)C[C@H](/C=C/C(C)(C)[C@]1(O)O2)O4)O3 [Bryostatin 1] (30 nM) : 95.3%

Consider the additional compound presented here.
// normalised viability value for Cc1cccc(-c2nn3c(c2-c2ccnc4ccc(C(N)=O)cc24)CCC3)n1 (300 nM) : 103%
